The measurements presented in this section are drawn from the supplement of paper PMC10627819.

# Test system: B. subtilis 168;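 further: OD595 on entry to stationary phase over no-drug wells; at most 1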
# experiment: fitness (endpoint OD595 vs no drug) (fraction); higher = more growth
# condition-notes: first compound 2 µg/mL; partner 0.125 µg/mL; one replicate
endpoint: fitness
One number for each entry.

Previously resolved entries follow.
CC[C@H]1OC(=O)[C@H](C)[C@@H](O[C@H]2C[C@@](C)(OC)[C@@H](O)[C@H](C)O2)[C@H](C)[C@@H](O[C@@H]2O[C@H](C)C[C@H](N(C)C)[C@H]2O)[C@](C)(O)C[C@@H](C)CN(C)[C@H](C)[C@@H](O)[C@]1(C)O [Azithromycin] + CN(C)c1cc(NC(=O)CNC(C)(C)C)c(O)c2c1C[C@H]1C[C@H]3[C@H](N(C)C)C(O)=C(C(N)=O)C(=O)[C@@]3(O)C(O)=C1C2=O [Tigecycline]: 0.614
Cc1cc(NS(=O)(=O)c2ccc(N)cc2)no1 [Sulfamethoxazol] + CN(C)c1cc(NC(=O)CNC(C)(C)C)c(O)c2c1C[C@H]1C[C@H]3[C@H](N(C)C)C(O)=C(C(N)=O)C(=O)[C@@]3(O)C(O)=C1C2=O: 0.942
CC[C@H]1OC(=O)[C@H](C)[C@@H](O[C@H]2C[C@@](C)(OC)[C@@H](O)[C@H](C)O2)[C@H](C)[C@@H](O[C@@H]2O[C@H](C)C[C@H](N(C)C)[C@H]2O)[C@](C)(O)C[C@@H](C)CN(C)[C@H](C)[C@@H](O)[C@]1(C)O [Azithromycin] + CO[C@@H]1[C@@H](OC(N)=O)[C@@H](O)[C@H](Oc2ccc3c(O)c(NC(=O)c4ccc(O)c(CC=C(C)C)c4)c(=O)oc3c2C)OC1(C)C [Novobiocin]: 0.347

Challenge: Look up fitness for this compound: CC[C@H]1OC(=O)[C@H](C)[C@@H](O[C@H]2C[C@@](C)(OC)[C@@H](O)[C@H](C)O2)[C@H](C)[C@@H](O[C@@H]2O[C@H](C)C[C@H](N(C)C)[C@H]2O)[C@](C)(O)C[C@@H](C)CN(C)[C@H](C)[C@@H](O)[C@]1(C)O [Azithromycin] + CC(=O)NC[C@H]1CN(c2ccc(N3CCOCC3)c(F)c2)C(=O)O1 [Linezolid]
Response given: 0
